# Tested Target: recombinant human ALK5 (TGF-βR1) protein (Homo sapiens, UniProt P36897)
# Sequence (P36897 34-503): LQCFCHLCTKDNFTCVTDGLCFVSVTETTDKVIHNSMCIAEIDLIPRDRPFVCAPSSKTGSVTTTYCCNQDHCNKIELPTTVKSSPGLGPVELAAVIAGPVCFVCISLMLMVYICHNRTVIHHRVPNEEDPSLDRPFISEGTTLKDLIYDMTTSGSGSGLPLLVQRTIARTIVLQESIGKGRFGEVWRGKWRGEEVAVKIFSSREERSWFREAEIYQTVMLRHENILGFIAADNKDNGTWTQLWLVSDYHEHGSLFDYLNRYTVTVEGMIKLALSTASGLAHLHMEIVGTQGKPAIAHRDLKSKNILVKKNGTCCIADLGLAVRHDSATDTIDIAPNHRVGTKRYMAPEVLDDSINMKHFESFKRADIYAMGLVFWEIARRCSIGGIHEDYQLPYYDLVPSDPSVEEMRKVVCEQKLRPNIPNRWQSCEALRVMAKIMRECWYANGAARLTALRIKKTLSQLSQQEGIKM
# Experiment Summary: Biochemical ALK5 (TGF-βR1) assay to measure pKi (LANCE Ultra ULight kinase assay)
# Settings: apparent pKi, converted from pIC50 using the Cheng-Prusoff equation
Give measured Ki for each item. Keep answers brief.

Solved entries:
CN1CCC(Nc2cnc3ccc(-c4c[nH]nc4-c4cc(Cl)ccc4F)nc3c2)C1 (stereo not shown) : 0.398 to 3.16 nM
CNCCn1cc(-c2cnc3ccc(-c4c(-c5ccc(F)c(F)c5)[nH]c5cccnc45)nc3c2)cn1 : 3.98 to 31.6 nM
Fc1ccc(Cl)cc1-c1nc2ccccn2c1-c1ccc2ncc(-c3cnn(C4CCCNC4)c3)cc2c1 (stereo not shown) : 0.0398 to 0.316 nM

From here, focus on the item given below.
Field Ki (system: recombinant human ALK5 (TGF-βR1) protein (Homo sapiens, UniProt P36897)) for entry `CN1CCN(CCNc2cnc3ccc(-c4c[nH]nc4-c4cc(Cl)c(F)cc4F)nc3c2)CC1` = 0.0398 to 0.316 nM

###

# Tested Target: recombinant human ALK5 (TGF-βR1) protein (Homo sapiens, UniProt P36897)
# Experiment Summary: Biochemical ALK5 (TGF-βR1) assay to measure pKi (LANCE Ultra ULight kinase assay)
# Settings: apparent pKi, converted from pIC50 using the Cheng-Prusoff equation
pKi: −log10 of the molar value.
Quantity Kind: pKi

For each listed entry, give its pKi.
1. Fc1ccc(Cl)cc1-c1[nH]cnc1-c1ccc2ncc(-c3cc4n(n3)CCNC4)cc2n1
2. Cc1nn2c(c1-c1cnc3ccc(-c4c[nH]nc4-c4cc(Cl)ccc4F)nc3c1)NCCC2
3. COC(=O)c1cnc2ccc(-c3[nH]nnc3-c3cc(Cl)ccc3F)nc2c1
4. CN(C)C1CCN(c2cnc3ccc(-c4c[nH]nc4-c4cc(Cl)ccc4F)nc3c2)C1 (racemic)
5. CN(C)C1(C)CN(c2cnc3ccc(-c4c[nH]nc4-c4cc(Cl)ccc4F)nc3c2)C1
6. Clc1cccc(-c2[nH]cnc2-c2ccc3ncc(NCCN4CCNCC4)cc3c2)c1
7. CC(C)N1CC=C(c2cnc3ccc(-c4c[nH]nc4-c4ccc(F)c(F)c4)nc3c2)C1

Result:
9.50 to 10.40
8.50 to 9.40
8.50 to 9.40
≥ 10.50
8.50 to 9.40
8.50 to 9.40
8.50 to 9.40

// field: pKi; key: `CNCCn1cc(-c2cnc3ccc(-c4c(-c5cc(Cl)ccc5F)[nH]c5cccnc45)cc3c2)cn1` ; value = 8.50 to 9.40

###

# Tested Target: recombinant human ALK5 (TGF-βR1) protein (Homo sapiens)
# Experiment Summary: Biochemical ALK5 (TGF-βR1) assay to measure pKi (LANCE Ultra ULight kinase assay)
# Settings: apparent pKi, converted from pIC50 using the Cheng-Prusoff equation
Quantity Kind: Ki

Fc1cc(F)c(-c2n[nH]cc2-c2ccc3ncc(-c4cnc5n4CCNC5)cc3n2)cc1Cl [Compound 6-48] : 0.398 to 3.16 nM
CNC(=O)C1CN(c2cnc3ccc(-c4c[nH]nc4-c4cc(Cl)ccc4F)nc3c2)CCN1C (racemic) [Compound 1-81] : 0.398 to 3.16 nM
CN(C)C1CCN(c2cnc3ccc(-c4c[nH]nc4-c4cc(Cl)c(F)cc4F)nc3c2)C1 (racemic) [Compound 6-22] : 0.0398 to 0.316 nM

I have 6 molecules here; please give me Ki for each one.
1. Fc1cc(F)c(-c2n[nH]cc2-c2ccc3ncc(NCC4CCCCN4)cc3n2)cc1Cl (stereo not shown) [Compound 6-8]
2. CN1CCC(Nc2cnc3ccc(-c4c[nH]nc4-c4cc(Cl)ccc4F)nc3c2)CC1 [Compound 1-3]
3. O=C(O)[C@H]1CN(c2cnc3ccc(-c4nc[nH]c4-c4cc(Cl)ccc4F)nc3c2)CCN1 [Compound 2-28]
4. Fc1cc(F)c(-c2n[nH]cc2-c2ccc3ncc(N4CCC(N5CCCCC5)C4)cc3n2)cc1Cl (racemic) [Compound 6-21]
5. CNCCn1ccc(-c2cnc3ccc(-c4nc[nH]c4-c4cc(Cl)ccc4F)nc3c2)n1 [Compound 2-16]
6. Fc1ccc(Cl)cc1-c1n[nH]cc1-c1ccc2ncc(NC3CCNCC3)cc2n1 [Compound 1-24]

Result:
1. 0.398 to 3.16 nM
2. 0.0398 to 0.316 nM
3. 0.398 to 3.16 nM
4. 0.0398 to 0.316 nM
5. 0.0398 to 0.316 nM
6. 0.0398 to 0.316 nM

Give Ki for all molecules that follow.
1. O=C(NCCN1CCCC1)[C@H]1CN(c2cnc3ccc(-c4c[nH]nc4-c4cc(Cl)ccc4F)nc3c2)CCN1 [Compound 1-132]
2. Fc1cc(F)c(-c2n[nH]cc2-c2ccc3ncc(-c4cnc5n4CCCN5)cc3n2)cc1Cl [Compound 6-60]
3. Fc1cc(F)c(-c2n[nH]cc2-c2ccc3ncc(-c4nnn5c4NCCC5)cc3n2)cc1Cl [Compound 6-47]
4. CC(C)NC1CC=C(c2cnc3ccc(-c4c[nH]nc4-c4ccc(F)c(F)c4)nc3c2)CC1 (stereo not shown) [Compound 8-24]
5. CNC(=O)[C@H]1CN(c2cnc3ccc(-c4c[nH]nc4-c4cc(Cl)c(F)cc4F)nc3c2)CCN1C(C)C [Compound 6-38]
6. COC(=O)[C@H]1CN(c2cnc3ccc(-c4c[nH]nc4-c4cc(Cl)ccc4F)nc3c2)CCN1 [Compound 1-62]

Result:
1. 0.0398 to 0.316 nM
2. 0.398 to 3.16 nM
3. 0.398 to 3.16 nM
4. ≤ 0.0316 nM
5. 0.0398 to 0.316 nM
6. 0.398 to 3.16 nM

Please look at the items below and tell me Ki for each one, in order.
1. CNCCn1cc(-c2cnc3ccc(-c4c(-c5cc(Cl)ccc5F)[nH]c5cccnc45)nc3c2)cn1 [Compound 25-2]
2. CN1CC2CN(c3cnc4ccc(-c5c[nH]nc5-c5cc(Cl)ccc5F)nc4c3)C2C1 (stereo not shown) [Compound 1-72]
3. Fc1cc(F)c(-c2n[nH]cc2-c2ccc3ncc(-c4cn(Cc5cnc6c(c5)CNCC6)nn4)cc3n2)cc1Cl [Compound 6-63]
4. Fc1ccc(-c2n[nH]cc2-c2ccc3ncc(-c4cnn(CC5CNC5)c4)cc3n2)cc1F [Compound 8-15]

Result:
0.398 to 3.16 nM
0.398 to 3.16 nM
0.0398 to 0.316 nM
≤ 0.0316 nM

Hi, could you look up Ki for each item in my list?
1. CNCCn1cc(-c2cnc3ccc(-c4c[nH]nc4-c4ccc(F)c(F)c4)nc3c2)cn1 [Compound 8-12]
2. Fc1ccc(Cl)cc1-c1[nH]cnc1-c1ccc2ncc(NC[C@@H]3CCCN3)cc2n1 [Compound 2-30]
3. CNCCn1cc(-c2cnc3ccc(-c4nc[nH]c4-c4cccc(COC)c4)nc3c2)cn1 [Compound 15-3]
4. CNCCn1cc(-c2cnc3ccc(-c4c[nH]nc4-c4cc(Cl)c(F)cc4F)nc3c2)nn1 [Compound 6-67]
5. CC(C)N1CCN(CCNc2cnc3ccc(-c4nc[nH]c4-c4cc(Cl)ccc4F)cc3c2)CC1 [Compound 17-3]
6. CCOC(=O)[C@H]1CN(c2cnc3ccc(-c4nc[nH]c4-c4cc(Cl)ccc4F)nc3c2)CCN1 [Compound 2-38]
7. CN1CCN(C2CCN(c3cnc4ccc(-c5c[nH]nc5-c5cc(Cl)c(F)cc5F)nc4c3)CC2)CC1 [Compound 6-17]
8. CN(C)C1CCN(c2cnc3ccc(-c4c[nH]nc4-c4ccc(F)c(F)c4)nc3c2)CC1 [Compound 8-7]

Result:
["≤ 0.0316 nM", "0.398 to 3.16 nM", "0.0398 to 0.316 nM", "≤ 0.0316 nM", "0.398 to 3.16 nM", "3.98 to 31.6 nM", "0.0398 to 0.316 nM", "0.398 to 3.16 nM"]

For each entry beneath this line, provide reported Ki.
1. Fc1ccc(Cl)cc1-c1[nH]cnc1-c1ccc2ncc(N3CCNCC3)cc2n1 [Compound 2-8]
2. Fc1ccc(Cl)cc1-c1n[nH]cc1-c1ccc2ncc(N3CC4CNC4C3)cc2n1 (stereo not shown) [Compound 1-64]
3. Fc1ccc(Cl)cc1-c1nc2ccccn2c1-c1ccc2ncc(N3CCNCC3)cc2n1 [Compound 3-2]

Result:
["0.0398 to 0.316 nM", "0.0398 to 0.316 nM", "0.0398 to 0.316 nM"]

# molecule COCc1cccc(-c2n[nH]cc2-c2ccc3ncc(N4CCN(C(C)C)CC4)cc3n2)c1 [Compound 14-5] ; its Ki = 3.98 to 31.6 nM

###

# Tested on: TGF-β-stimulated SMAD3 phosphorylation in BEAS-2B cells
# Experiment Summary: Cellular ALK5 potency assay, inhibition of TGF-β stimulated pSMAD3 formation in BEAS-2B cells
# Type: cell-based
# Settings: Homo sapiens, inhibition of TGF-β (10 ng/mL) stimulated pSMAD3 formation, 1 hour compound incubation, read-out: BEAS2B pIC50 (converted)
Quantity Kind: IC50

Illustrative cases are given below, each with its answer.
Fc1ccc(Cl)cc1-c1[nH]cnc1-c1ccc2ncc(-c3cnn(C4CCCNC4)c3)cc2n1 (stereo not shown) [Compound 2-18] : 25.1 to 158 nM
Fc1ccc(Cl)cc1-c1[nH]cnc1-c1ccc2ncc(-c3cn4c(n3)CNCC4)cc2c1 [Compound 17-14] : 25.1 to 158 nM
CNCCn1cc(-c2cnc3ccc(-c4c[nH]nc4-c4cc(Cl)c(F)cc4F)nc3c2)nn1 [Compound 6-67] : 25.1 to 158 nM
Fc1ccc(Cl)cc1-c1n[nH]cc1-c1ccc2ncc(N3CCn4nc(N5CCN(Cc6ccccc6)CC5)nc4C3)cc2n1 [Compound 1-46] : 25.1 to 158 nM
CC(C)N1CCN(CCNc2cnc3ccc(-c4c[nH]nc4-c4cccc(Cl)c4)nc3c2)CC1 [Compound 28-1] : 25.1 to 158 nM
CN1C[C@H]2C[C@@H]1CN2c1cnc2ccc(-c3c[nH]nc3-c3cc(Cl)ccc3F)nc2c1 (racemic) [Compound 1-42] : 25.1 to 158 nM
NCCN1CCN(c2cnc3ccc(-c4c[nH]nc4-c4cc(Cl)ccc4F)nc3c2)CC1 [Compound 1-57] : 25.1 to 158 nM
CNCCn1cc(-c2cnc3ccc(-c4c[nH]nc4-c4ccc(F)c(F)c4)nc3c2)cn1 [Compound 8-12] : ≤ 20 nM

# batch: return IC50 for each of the 6 compounds below
1. Fc1ccc(Cl)cc1-c1n[nH]cc1-c1ccc2ncc(NC3CCCNC3)cc2n1 (stereo not shown) [Compound 1-25]
2. Fc1cc(F)c(-c2n[nH]cc2-c2ccc3ncc(-c4[nH]nc5c4CCN5)cc3n2)cc1Cl [Compound 6-59]
3. NCCn1cc(-c2cnc3ccc(-c4c[nH]nc4-c4cc(Cl)c(F)cc4F)nc3c2)cn1 [Compound 6-41]
4. CC(C)N1CCN(CCNc2cnc3ccc(-c4nc[nH]c4-c4cc(Cl)c(F)cc4F)cc3c2)CC1 [Compound 22-4]
5. CN1CCN(C2CCN(c3cnc4ccc(-c5c[nH]nc5-c5cc(Cl)c(F)cc5F)nc4c3)CC2)CC1 [Compound 6-17]
6. CN1CC=C(c2cnc3ccc(-c4c[nH]nc4-c4cc(Cl)ccc4F)nc3c2)C1 [Compound 1-97]

Result:
1: 25.1 to 158 nM; 2: 25.1 to 158 nM; 3: 25.1 to 158 nM; 4: 25.1 to 158 nM; 5: 25.1 to 158 nM; 6: ≤ 20 nM

// batch mode: one IC50 value per listed entry
1. Fc1ccc(-c2n[nH]cc2-c2ccc3ncc(-c4cn[nH]c4)cc3n2)c(F)c1 [Compound 10-1]
2. CNC(=O)[C@@H]1CN(c2cnc3ccc(-c4c[nH]nc4-c4cc(Cl)ccc4F)nc3c2)CCN1 [Compound 1-58]
3. C[C@@H]1CN(CCNc2cnc3ccc(-c4c[nH]nc4-c4cc(Cl)ccc4F)nc3c2)C[C@H](C)N1 [Compound 1-1]
4. Fc1cc(F)c(-c2n[nH]cc2-c2ccc3ncc(-c4ncc5n4CCNC5)cc3n2)cc1Cl [Compound 6-51]

Result:
≤ 20 nM
25.1 to 158 nM
25.1 to 158 nM
25.1 to 158 nM

For each of the compounds below, state IC50.
1. COCc1cccc(-c2n[nH]cc2-c2ccc3ncc(N4CCN(C(C)C)CC4)cc3n2)c1 [Compound 14-5]
2. Fc1ccc(Cl)cc1-c1[nH]cnc1-c1ccc2ncc(-c3nnn4c3CNCC4)cc2c1 [Compound 17-12]
3. Fc1ccc(Cl)cc1-c1n[nH]cc1-c1ccc2ncc(NCCN3CCCC3)cc2n1 [Compound 1-14]
4. CN(C)C1CCN(c2cnc3ccc(-c4c(-c5cc(Cl)ccc5F)nc5ccccn45)nc3c2)C1 (racemic) [Compound 3-4]
5. CNC1CCN(c2cnc3ccc(-c4c[nH]nc4-c4cc(Cl)c(F)cc4F)nc3c2)C1 (stereo not shown) [Compound 6-35]
6. Fc1cc(F)c(-c2n[nH]cc2-c2ccc3ncc(N4CCC(N5CCCCC5)C4)cc3n2)cc1Cl (racemic) [Compound 6-21]

Result:
1. 25.1 to 158 nM
2. 25.1 to 158 nM
3. ≤ 20 nM
4. 200 to 1260 nM
5. ≤ 20 nM
6. 25.1 to 158 nM

For every item in the list below, what is its measured IC50?
1. Fc1ccc(Cl)cc1-c1[nH]nnc1-c1ccc2ncc(N3CCCNCC3)cc2c1 [Compound 18-7]
2. CNCCn1cc(-c2cnc3ccc(-c4nc[nH]c4-c4ccc(F)c(F)c4)cc3c2)cn1 [Compound 23-2]
3. Fc1ccc(Cl)cc1-c1n[nH]cc1-c1ccc2ncc(-c3[nH]nc4c3CCN4)cc2n1 [Compound 1-125]
4. CC(C)NC1CC=C(c2cnc3ccc(-c4c[nH]nc4-c4ccc(F)c(F)c4)nc3c2)CC1 (stereo not shown) [Compound 8-24]
5. Fc1ccc(Cl)cc1-c1[nH]nnc1-c1ccc2ncc(-c3cn[nH]c3)cc2c1 [Compound 18-2]

Result:
1. 200 to 1260 nM
2. 25.1 to 158 nM
3. 25.1 to 158 nM
4. ≤ 20 nM
5. ≤ 20 nM

Hi, could you look up IC50 for each item in my list?
1. Fc1ccc(-c2n[nH]cc2-c2ccc3ncc(C4=CCC(NCc5ccccc5)CC4)cc3n2)cc1F (stereo not shown) [Compound 8-26]
2. NC1CCN(c2cnc3ccc(-c4c[nH]nc4-c4cc(Cl)c(F)cc4F)nc3c2)C1 (stereo not shown) [Compound 6-34]

Result:
["25.1 to 158 nM", "≤ 20 nM"]
